System: PC-9
assay-explanation: cells
experimental-setup: Homo sapiens, PC-9, 72 h
Description: Cytotoxicity against human PC-9 cells expressing EGFR Del19 mutant assessed as inhibition of cell proliferation incubated for 72 hrs by CCK8 assay
// values below are reported pIC50
Lab note: report pIC50 as minus log10 of the concentration in molar units, number only.

>>> numeric_value("C=CC(=O)Nc1cc(Nc2nccc(-c3cn(C)c4ccccc34)n2)c(OC)cc1N(C)CCN(C)C")
7.82
>>> numeric_value("C=CC(=O)Nc1cc(Nc2ncc(F)c(-c3ccc4cc(C(=O)N(C)C)n(C(C)C)c4c3)n2)ccc1N1CCN(C(C)C)CC1")
6.91
>>> numeric_value("C=CC(=O)Nc1cc(Nc2ncc(F)c(-c3ccc4cc(C(=O)NC)n(C(C)C)c4c3)n2)c(OC)cc1N1CCN(C(C)C)CC1")
5.99
>>> numeric_value("C=CC(=O)Nc1cc(Nc2ncc(F)c(-c3ccc4cc(C(=O)NC)n(C(C)C)c4c3)n2)ccc1N1CCN(C(C)C)CC1")
6.83

Ask: Can you share its pIC50? I mean this compound: C=CC(=O)Nc1cc(Nc2ncc(F)c(-c3ccc4cc(C(=O)NC)n(C(C)C)c4c3)n2)c(OC)cc1N1CCN(C)CC1
Reply: 5.68

Ask: Same read-out for C=CC(=O)Nc1cc(Nc2ncc(F)c(-c3ccc4cc(C(=O)NC)n(C(C)C)c4c3)n2)ccc1N1CCN(C)CC1 ?
Reply: 6.84

Ask: Cool, now C=CC(=O)Nc1cc(Nc2ncc(F)c(-c3ccc4cc(C(=O)NC)n(C(C)C)c4c3)n2)ccc1N(C)CCN(C)C
Reply: 7.28

Ask: Now the same for C=CC(=O)Nc1cc(Nc2ncc(F)c(-c3ccc4cc(C(=O)N(C)C)n(C(C)C)c4c3)n2)ccc1N1CCN(C)CC1
Reply: 5.70

---

assay-explanation: Metabolic stability in dog liver microsomes assessed as half-life at 10 uM preincubated for 5 mins followed by NADPH addition and measured upto 60 mins by HPLC analysis
Type: ADME, Canis lupus familiaris, Microsome
experimental-setup: time < 65 min
result-type: half-life at 10 µM (h)
Use h as the unit, but write only the number.

Ask: Given the compound C=CC(=O)Nc1cc(Nc2ncc(F)c(-c3ccc4cc(C(=O)NC)n(C(C)C)c4c3)n2)ccc1N1CCN(C)CC1 , what is its reported half-life at 10 µM?
Reply: 4.28

---

assay-explanation: Metabolic stability in human liver microsomes assessed as intrinsic clearance at 10 uM preincubated for 5 mins followed by NADPH addition and measured upto 60 mins by HPLC analysis
Type: ADME, Microsome
experimental-setup: time < 65 min, read-out: CLH
result-type: microsomal CLint at 10 µM (µL/min/mg)
Please reply with the bare figure in µL/min/mg and do not write the unit itself.

Ask: I'd like to know its microsomal CLint at 10 µM. The compound in question is C=CC(=O)Nc1cc(Nc2ncc(F)c(-c3ccc4cc(C(=O)NC)n(C(C)C)c4c3)n2)ccc1N1CCN(C)CC1
Reply: 20

---

assay-explanation: Metabolic stability in mouse liver microsomes assessed as intrinsic clearance at 10 uM preincubated for 5 mins followed by NADPH addition and measured upto 60 mins by HPLC analysis
Format: ADME, Microsome
experimental-setup: time < 65 min, read-out: CLH
result-type: microsomal CLint at 10 µM (µL/min/mg)
Numeric only. Scale: µL/min/mg

Ask: I would be grateful if you could share the reported microsomal CLint at 10 µM for C=CC(=O)Nc1cc(Nc2ncc(F)c(-c3ccc4cc(C(=O)NC)n(C(C)C)c4c3)n2)ccc1N1CCN(C)CC1 .
Reply: 56
